SYSTEM_TESTED: T1, type 2 ryanodine receptor (RyR2) channel in cardiac SR membranes (pig (endogenous in porcine heart SR), UniProt A0A5G2R1W3 1-4900)
T1 construct: type 2 ryanodine receptor (RyR2), pig heart; homotetrameric assembly of 565-kDa protomers; 'intact RyR2 in cardiac SR vesicles'; In every assay RyR2 stood in native SR membranes and was preloaded with a donor-labelled FKBP12.6 (D-FKBP); also called cardiac ryanodine receptor; source: endogenous, SR vesicles isolated by differential ultracentrifugation of porcine ventricular tissue; residual …
ASSAY_SUMMARY: FRET or BRET; as a6 but 300 uM Ca2+, pre-incubated 40 min with unlabeled CaM (1 uM by the legend, 30 uM by the text); apparent affinity; Hill fit
CONDITION_DESCRIPTION: one partner purified
Ends that are not written are not given here. QXL520 = non-fluorescent dark acceptor (quencher) probe
VALUE_KIND: Kd
Report field: quantity (unit follows the number).

Query QXL520-GFCPDHKAAMVLFLDRVYGIEVQDFLLHLLEVGFLP (also called acceptor-DPc10; source: synthetic peptide (AnaSpec)) [acceptor-labeled DPc10 (A-DPc10), QXL520 at the N-terminus] yields Kd of 33.9 µM
